system: HTR1F (Homo sapiens, UniProt P30939)
Construct: purchased Promega (in-house HiBiT-GPCR construct library, NanoBRET)
Sequence (P30939 whole entry): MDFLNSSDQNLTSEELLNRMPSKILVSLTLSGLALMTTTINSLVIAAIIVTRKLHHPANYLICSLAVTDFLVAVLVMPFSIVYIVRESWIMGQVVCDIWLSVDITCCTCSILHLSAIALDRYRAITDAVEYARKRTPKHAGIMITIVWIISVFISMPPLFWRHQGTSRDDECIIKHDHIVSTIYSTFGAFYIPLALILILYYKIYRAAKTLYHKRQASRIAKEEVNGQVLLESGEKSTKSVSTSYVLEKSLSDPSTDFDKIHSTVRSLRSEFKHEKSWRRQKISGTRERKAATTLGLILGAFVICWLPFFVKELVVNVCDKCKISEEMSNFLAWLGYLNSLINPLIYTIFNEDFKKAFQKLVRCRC
test-protocol: NanoBRET screen HiBiT-HTR1F in HEK293
Type: binding
measurement-parameters: HTR1F; tracer 0.1μM
observable: NanoBRET Fold Response
Give only the figure.

molecule="COc1ccccc1N1CCN(CCCCN2C(=O)c3ccc(CNC(=O)CCOCCOCCOCCOCCNC(=O)CCc4ccc5n4[B-](F)(F)[N+]4=C(c6ccc[nH]6)C=CC4=C5)cc3C2=O)CC1 [NAN-190-2-NB590]" system="HTR1F (Homo sapiens, UniProt P30939)" observable="NanoBRET Fold Response" test_result=1.29

Then there is this molecule:
q: I have this molecule here, O=C(CCc1ccc2n1[B-](F)(F)[N+]1=C(c3ccc[nH]3)C=CC1=C2)NCCOCCOCCNC(=O)OCCOCCN1CCN(C2=Nc3ccccc3Sc3ccccc32)CC1 [Quetiapine-a-2-NB590] , and I need its recorded NanoBRET Fold Response.
a: 1.01

###

system: HTR4 (Homo sapiens, UniProt Q13639)
Construct: purchased Promega (in-house HiBiT-GPCR construct library, NanoBRET)
Sequence (Q13639 whole entry): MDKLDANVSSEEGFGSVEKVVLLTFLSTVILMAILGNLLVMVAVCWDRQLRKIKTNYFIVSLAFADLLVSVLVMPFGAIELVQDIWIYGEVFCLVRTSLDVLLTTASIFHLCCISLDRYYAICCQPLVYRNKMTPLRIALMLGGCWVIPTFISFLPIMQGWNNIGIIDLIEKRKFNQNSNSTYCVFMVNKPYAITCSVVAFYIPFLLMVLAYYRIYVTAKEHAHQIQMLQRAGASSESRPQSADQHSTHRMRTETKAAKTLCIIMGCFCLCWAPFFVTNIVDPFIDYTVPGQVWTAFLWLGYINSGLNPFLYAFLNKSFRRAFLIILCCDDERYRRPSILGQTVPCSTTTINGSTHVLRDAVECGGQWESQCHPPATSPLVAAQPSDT
test-protocol: NanoBRET screen HiBiT-HTR4 in HEK293
Assay type: binding
measurement-parameters: HTR4; tracer 0.1μM
The reader will find reported NanoBRET Fold Response values listed item by item below.
Give only the figure.

Take a look at these entries with their results.
smiles_string=O=C(CCOCCOCCOCCOCCNC(=O)CCc1ccc2n1[B-](F)(F)[N+]1=C(c3ccc[nH]3)C=CC1=C2)NCCCN1CCN(C2=Nc3ccccc3Oc3ccc(Cl)cc32)CC1 observable="NanoBRET Fold Response" test_result=1.02
smiles_string=CC(C)N(CC[C@H](c1ccccc1)c1cc(CCNC(=O)c2ccc(CNC(=O)CCc3ccc4n3[B-](F)(F)[N+]3=C(c5ccc[nH]5)C=CC3=C4)cc2)ccc1O)C(C)C observable="NanoBRET Fold Response" test_result=0.94
smiles_string=COc1ccccc1N1CCN(CCCCN2C(=O)c3ccc(CNC(=O)CCOCCNC(=O)c4ccc(CNC(=O)CCc5ccc6n5[B-](F)(F)[N+]5=C(c7ccc[nH]7)C=CC5=C6)cc4)cc3C2=O)CC1 observable="NanoBRET Fold Response" test_result=1.00

q: Form entry - test system: HTR4 (Homo sapiens, UniProt Q13639); read-out: NanoBRET Fold Response; compound: CC(C)N(CC[C@H](c1ccccc1)c1cc(CCNC(=O)CCOCCOCCOCCOCCNC(=O)CCc2ccc3n2[B-](F)(F)[N+]2=C(c4ccc[nH]4)C=CC2=C3)ccc1O)C(C)C
a: 0.92

q: Form entry - test system: HTR4 (Homo sapiens, UniProt Q13639); read-out: NanoBRET Fold Response; compound: CCCn1c(=O)c2[nH]c(-c3ccc(OCC(=O)NCCNC(=O)CCOCCNC(=O)c4ccc(CNC(=O)CCc5ccc6n5[B-](F)(F)[N+]5=C(c7ccc[nH]7)C=CC5=C6)cc4)cc3)nc2n(CCC)c1=O
a: 1.03

###

The reader will find reported NanoBRET Fold Response values listed item by item below.
system: P2RY12 (Homo sapiens, UniProt Q9H244)
Construct: purchased Promega (in-house HiBiT-GPCR construct library, NanoBRET)
Sequence (Q9H244 whole entry, one chain of several): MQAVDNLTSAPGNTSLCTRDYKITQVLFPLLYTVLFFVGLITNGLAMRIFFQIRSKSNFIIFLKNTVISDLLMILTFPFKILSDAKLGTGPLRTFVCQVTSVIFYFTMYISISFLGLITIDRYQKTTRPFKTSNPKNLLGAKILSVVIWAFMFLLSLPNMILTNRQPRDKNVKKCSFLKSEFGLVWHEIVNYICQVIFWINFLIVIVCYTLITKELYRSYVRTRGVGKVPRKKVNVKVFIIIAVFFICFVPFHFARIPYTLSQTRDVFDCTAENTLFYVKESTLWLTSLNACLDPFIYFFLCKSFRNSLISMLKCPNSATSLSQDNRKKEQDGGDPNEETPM
test-protocol: NanoBRET screen HiBiT-P2RY12 in HEK293
Format: binding
measurement-parameters: P2RY12; tracer 0.1μM

Take a look at these entries with their results.
compound="O=C(CCc1ccc2n1[B-](F)(F)[N+]1=C(c3ccc[nH]3)C=CC1=C2)NCCOCCOCCNC(=O)OCCOCCN1CCN(C2=Nc3ccccc3Sc3ccccc32)CC1 [Quetiapine-a-2-NB590]" observable="NanoBRET Fold Response" test_result=0.99
compound="COc1ccccc1N1CCN(CCCCN2C(=O)c3ccc(CNC(=O)CCOCCNC(=O)c4ccc(CNC(=O)CCc5ccc6n5[B-](F)(F)[N+]5=C(c7ccc[nH]7)C=CC5=C6)cc4)cc3C2=O)CC1 [NAN-190-3-NB590]" observable="NanoBRET Fold Response" test_result=1.12
compound="CCCn1c(=O)c2[nH]c(-c3ccc(OCC(=O)NCCNC(=O)CCOCCNC(=O)c4ccc(CNC(=O)CCc5ccc6n5[B-](F)(F)[N+]5=C(c7ccc[nH]7)C=CC5=C6)cc4)cc3)nc2n(CCC)c1=O [XAC-3-NB590]" observable="NanoBRET Fold Response" test_result=0.91
compound="CC(C)N(CC[C@H](c1ccccc1)c1cc(CCNC(=O)CCOCCOCCOCCOCCNC(=O)CCc2ccc3n2[B-](F)(F)[N+]2=C(c4ccc[nH]4)C=CC2=C3)ccc1O)C(C)C [Tolterodine-2-NB590]" observable="NanoBRET Fold Response" test_result=0.93

Then there is this compound:
q: I have this compound here, O=C(CCc1ccc2n1[B-](F)(F)[N+]1=C(c3ccc[nH]3)C=CC1=C2)NCc1ccc(C(=O)NCCOCCC(=O)N[C@@H]2CC[C@@]3(O)[C@H]4Cc5ccc(O)c6c5[C@@]3(CCN4CC3CC3)[C@H]2O6)cc1 [Naltrexone-3-NB590] , and I need its recorded NanoBRET Fold Response.
a: 1.30
